In vivo Activity Guinea Pigs Intraperitoneal % Lowering, 120 minutes values by entry
System: serum complement activity
assayText: Guinea Pig Intraperitoneal Test (GPIP)
Type: in vivo
conditionLabel: 200 mg/kg i.p., blood sample 120 minutes after injection
Express your answer as a number followed by its unit.

# input Read the entry O=C(Nc1cc(S(=O)(=O)[O-])cc2cc(S(=O)(=O)[O-])cc(S(=O)(=O)[O-])c12)Nc1cc(S(=O)(=O)[O-])cc2cc(S(=O)(=O)[O-])cc(S(=O)(=O)[O-])c12.[Na+].[Na+].[Na+].[Na+].[Na+].[Na+] and write its reported In vivo Activity Guinea Pigs Intraperitoneal % Lowering, 120 minutes.
# output 65%

# input Read the entry O=S(=O)([O-])c1cc(NC(=S)Nc2cc(S(=O)(=O)[O-])cc3cc(S(=O)(=O)[O-])cc(S(=O)(=O)[O-])c23)c2c(S(=O)(=O)[O-])cc(S(=O)(=O)[O-])cc2c1.[Na+].[Na+].[Na+].[Na+].[Na+].[Na+] and write its reported In vivo Activity Guinea Pigs Intraperitoneal % Lowering, 120 minutes.
# output 42%

# input Read the entry O=C(Nc1cc2c(O)cc(S(=O)(=O)[O-])cc2cc1S(=O)(=O)[O-])Nc1cc2c(O)cc(S(=O)(=O)[O-])cc2cc1S(=O)(=O)[O-].[Na+].[Na+].[Na+].[Na+] and write its reported In vivo Activity Guinea Pigs Intraperitoneal % Lowering, 120 minutes.
# output 28%

# input Read the entry O=C(Nc1ccc(S(=O)(=O)[O-])c2cc(S(=O)(=O)[O-])cc(S(=O)(=O)[O-])c12)Nc1ccc(S(=O)(=O)[O-])c2cc(S(=O)(=O)[O-])cc(S(=O)(=O)[O-])c12.[Na+].[Na+].[Na+].[Na+].[Na+].[Na+] and write its reported In vivo Activity Guinea Pigs Intraperitoneal % Lowering, 120 minutes.
# output 94%

----------
C1 026 Wells values by entry
testedOn: activated human C1 (Homo sapiens, UniProt P09871)
assayText: Test Code 026 (C1 inhibitor)
Type: biochemical
conditionLabel: serial twofold dilution assay; higher well number indicates higher activity

A selection of reference data follows.
O=C(Nc1cc(S(=O)(=O)[O-])c2cc([N+](=O)[O-])cc(S(=O)(=O)[O-])c2c1)Nc1cc(S(=O)(=O)[O-])c2cc([N+](=O)[O-])cc(S(=O)(=O)[O-])c2c1.[Na+].[Na+].[Na+].[Na+] :: +3 Wells
O=C(Nc1cc(S(=O)(=O)[O-])cc2cccc(S(=O)(=O)[O-])c12)Nc1cc(S(=O)(=O)[O-])cc2cccc(S(=O)(=O)[O-])c12.[Na+].[Na+].[Na+].[Na+] :: +3 Wells

Here is another molecule to look at.
# input Read the entry O=C(Nc1cc(S(=O)(=O)[O-])cc2ccc(S(=O)(=O)[O-])cc12)Nc1cc(S(=O)(=O)[O-])cc2ccc(S(=O)(=O)[O-])cc12.[Na+].[Na+].[Na+].[Na+] and write its reported C1 026 Wells.
# output +2 Wells

The measurements presented in this section are drawn from patent US4591604A.
